# assayTarget: Metabotropic glutamate receptor 8 (Homo sapiens)
# measurementNotes: Agonist activity at mGlu8 (unknown origin) expressed in HEK293 cells coexpressing chimeric Gq/i protein assessed as increase in intracellular calcium accumulation by Fluo-4 AM dye based fluorescence assay
# Type: functional, cell-based
The reader will find reported log10 of EC50 values listed item by item below.
Please keep in mind that the values are log10 of EC50 expressed in µM.

In the examples that follow, each entry is paired with its recorded log10 of EC50.
1. Nc1ncc(C(O)P(=O)(O)CC[C@H](N)C(=O)O)s1 (some centres undefined) | 1.45
2. CCOc1cc(C(O)P(=O)(O)CC[C@H](N)C(=O)O)cc([N+](=O)[O-])c1O (mixture of isomers) | 1.30
3. CCCCCCNC(c1cccc([N+](=O)[O-])c1)P(=O)(O)CC[C@H](N)C(=O)O (some centres undefined) | 1.36

Lab note: compound COc1ccc(C(O)P(=O)(O)CC[C@H](N)C(=O)O)cc1[N+](=O)[O-] (some centres undefined) tested on Metabotropic glutamate receptor 8 (Homo sapiens); recorded log10 of EC50 was 0.58

Lab note: compound Cc1ccc(C(O)P(=O)(O)CC[C@H](N)C(=O)O)cc1[N+](=O)[O-] (some centres undefined) tested on Metabotropic glutamate receptor 8 (Homo sapiens); recorded log10 of EC50 was 0.20

Lab note: compound N[C@@H](CCP(=O)(O)[C@H](O)c1cc(F)c(O)c([N+](=O)[O-])c1)C(=O)O tested on Metabotropic glutamate receptor 8 (Homo sapiens); recorded log10 of EC50 was 1.54

Lab note: compound N[C@@H](CCP(=O)(O)[C@@H](O)c1cc(F)c(O)c([N+](=O)[O-])c1)C(=O)O tested on Metabotropic glutamate receptor 8 (Homo sapiens); recorded log10 of EC50 was 1.23

Lab note: compound N[C@@H](CCP(=O)(O)C(O)c1ccc(O)cc1)C(=O)O (some centres undefined) tested on Metabotropic glutamate receptor 8 (Homo sapiens); recorded log10 of EC50 was 1.40

Lab note: compound N[C@@H](CCP(=O)(O)C(O)c1csc([N+](=O)[O-])c1)C(=O)O (some centres undefined) tested on Metabotropic glutamate receptor 8 (Homo sapiens); recorded log10 of EC50 was -0.42

----------
# assayTarget: Metabotropic glutamate receptor 8 (Homo sapiens)
# measurementNotes: Agonist activity at mGlu8 (unknown origin) expressed in HEK293 cells coexpressing chimeric Gq/i protein assessed as [3H]inositol phosphate accumulation after 30 mins by scintillation and luminescence counting method
# Type: functional, cell-based
endpoint: log10(EC50) (log10 of the value in nM)
Please keep in mind that the values are log10 of EC50 expressed in nM.

1) N[C@@H](CCP(=O)(O)C(O)c1ccc([N+](=O)[O-])o1)C(=O)O (stereo partly drawn) | 2.48

Recorded log10(EC50) (molecule N[C@@H](CCP(=O)(O)C(O)c1cccc([N+](=O)[O-])c1O)C(=O)O (stereo partly drawn) ): 4.33

Recorded log10(EC50) (molecule N[C@@H](CCP(=O)(O)C(O)c1ccc([N+](=O)[O-])cc1)C(=O)O (stereo partly drawn) ): 2.72

Recorded log10(EC50) (molecule N[C@@H](CCP(=O)(O)C(O)c1csc([N+](=O)[O-])c1)C(=O)O (stereo partly drawn) ): 2.71

Recorded log10(EC50) (molecule CC(=O)c1ccc(C(O)P(=O)(O)CC[C@H](N)C(=O)O)cc1 (stereo partly drawn) ): 4.15

Recorded log10(EC50) (molecule Nc1ccc(C(O)P(=O)(O)CC[C@H](N)C(=O)O)cc1 (stereo partly drawn) ): 3.92

Recorded log10(EC50) (molecule N[C@@H](CCP(=O)(O)C(O)c1ccc(Cl)c([N+](=O)[O-])c1)C(=O)O (stereo partly drawn) ): 3.40

----------
The reader will find reported EC50 values listed item by item below.
# assayTarget: Metabotropic glutamate receptor 8 (Homo sapiens, UniProt O00222)
# Sequence (O00222 whole entry): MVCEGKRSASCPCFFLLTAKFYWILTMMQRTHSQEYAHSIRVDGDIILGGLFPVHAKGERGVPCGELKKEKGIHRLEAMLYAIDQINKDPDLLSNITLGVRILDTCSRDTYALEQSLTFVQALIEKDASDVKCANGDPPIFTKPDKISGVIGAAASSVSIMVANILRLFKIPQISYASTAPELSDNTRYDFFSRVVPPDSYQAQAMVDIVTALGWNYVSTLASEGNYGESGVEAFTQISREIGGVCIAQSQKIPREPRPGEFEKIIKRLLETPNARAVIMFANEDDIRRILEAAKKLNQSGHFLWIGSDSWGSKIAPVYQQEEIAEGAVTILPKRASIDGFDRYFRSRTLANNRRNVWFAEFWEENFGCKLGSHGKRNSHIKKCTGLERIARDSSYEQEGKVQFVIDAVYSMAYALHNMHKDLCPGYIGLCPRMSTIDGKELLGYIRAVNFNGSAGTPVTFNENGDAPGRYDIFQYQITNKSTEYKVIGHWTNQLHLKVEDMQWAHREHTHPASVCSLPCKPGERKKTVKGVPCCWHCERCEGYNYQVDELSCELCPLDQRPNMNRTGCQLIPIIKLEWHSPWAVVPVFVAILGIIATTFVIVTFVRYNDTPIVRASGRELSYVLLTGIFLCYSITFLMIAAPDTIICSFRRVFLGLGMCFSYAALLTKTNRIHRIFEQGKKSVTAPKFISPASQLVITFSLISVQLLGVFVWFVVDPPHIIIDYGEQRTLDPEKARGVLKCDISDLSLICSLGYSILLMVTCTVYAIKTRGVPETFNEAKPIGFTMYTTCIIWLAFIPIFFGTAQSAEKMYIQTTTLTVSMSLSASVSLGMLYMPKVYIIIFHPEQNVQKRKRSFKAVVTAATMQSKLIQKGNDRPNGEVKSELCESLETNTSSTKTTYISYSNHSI
# measurementNotes: Agonist activity at mGlu8 (unknown origin) expressed in HEK293 cells coexpressing chimeric Gq/i protein assessed as [3H]inositol phosphate accumulation after 30 mins by scintillation and luminescence counting method
# Assay type: functional, cell-based
Numbers only here, please. The scale is µM.

1. N[C@@H](CCP(=O)(O)C(O)c1ccc([N+](=O)[O-])s1)C(=O)O (stereo not given in full) | 1.9
2. N[C@@H](CCP(=O)(O)C(O)c1coc(C(=O)O)c1)C(=O)O (stereo not given in full) | 9.2
3. N[C@@H](CCP(=O)(O)C(O)c1cc(O)c(O)c([N+](=O)[O-])c1)C(=O)O (stereo not given in full) | 5.4

Recorded EC50 (compound N[C@@H](CCP(=O)(O)CCC(=O)O)C(=O)O ): 7.8

Recorded EC50 (compound Cc1ccc(C(O)P(=O)(O)CC[C@H](N)C(=O)O)cc1[N+](=O)[O-] (stereo not given in full) ): 5.6

----------
# assayTarget: Metabotropic glutamate receptor 8 (Homo sapiens, UniProt O00222)
# measurementNotes: Agonist activity at mGlu8 (unknown origin) expressed in HEK293 cells coexpressing chimeric Gq/i protein assessed as [3H]inositol phosphate accumulation after 30 mins by scintillation and luminescence counting method
# Assay type: functional, cell-based
endpoint: pEC50
Kindly note that pEC50 refers to -log10 of the concentration in mol/L and answer with the value alone.

Recorded pEC50 (compound N[C@@H](CCP(=O)(O)C(O)c1c(F)c(F)c(F)c(F)c1F)C(=O)O (stereo not given in full) ): 4.73

----------
# assayTarget: UniProt O00222
# measurementNotes: Agonist activity at mGlu8 (unknown origin) expressed in HEK293 cells coexpressing chimeric Gq/i protein assessed as increase in intracellular calcium accumulation by Fluo-4 AM dye based fluorescence assay
# Format: functional, cell-based
The reader will find reported EC50 values listed item by item below.
Numbers only here, please. The scale is µM.

1. N[C@@H](CCP(=O)(O)C(O)c1ccc(Cl)c([N+](=O)[O-])c1)C(=O)O (some centres undefined) | 4.9

Now take the following molecule into account.
Recorded EC50 (molecule COc1cc(C(O)P(=O)(O)CC[C@H](N)C(=O)O)cc([N+](=O)[O-])c1O (mixture of isomers) ): 19.4

----------
# assayTarget: Metabotropic glutamate receptor 4 (Homo sapiens, UniProt Q14833)
# Sequence (Q14833 whole entry): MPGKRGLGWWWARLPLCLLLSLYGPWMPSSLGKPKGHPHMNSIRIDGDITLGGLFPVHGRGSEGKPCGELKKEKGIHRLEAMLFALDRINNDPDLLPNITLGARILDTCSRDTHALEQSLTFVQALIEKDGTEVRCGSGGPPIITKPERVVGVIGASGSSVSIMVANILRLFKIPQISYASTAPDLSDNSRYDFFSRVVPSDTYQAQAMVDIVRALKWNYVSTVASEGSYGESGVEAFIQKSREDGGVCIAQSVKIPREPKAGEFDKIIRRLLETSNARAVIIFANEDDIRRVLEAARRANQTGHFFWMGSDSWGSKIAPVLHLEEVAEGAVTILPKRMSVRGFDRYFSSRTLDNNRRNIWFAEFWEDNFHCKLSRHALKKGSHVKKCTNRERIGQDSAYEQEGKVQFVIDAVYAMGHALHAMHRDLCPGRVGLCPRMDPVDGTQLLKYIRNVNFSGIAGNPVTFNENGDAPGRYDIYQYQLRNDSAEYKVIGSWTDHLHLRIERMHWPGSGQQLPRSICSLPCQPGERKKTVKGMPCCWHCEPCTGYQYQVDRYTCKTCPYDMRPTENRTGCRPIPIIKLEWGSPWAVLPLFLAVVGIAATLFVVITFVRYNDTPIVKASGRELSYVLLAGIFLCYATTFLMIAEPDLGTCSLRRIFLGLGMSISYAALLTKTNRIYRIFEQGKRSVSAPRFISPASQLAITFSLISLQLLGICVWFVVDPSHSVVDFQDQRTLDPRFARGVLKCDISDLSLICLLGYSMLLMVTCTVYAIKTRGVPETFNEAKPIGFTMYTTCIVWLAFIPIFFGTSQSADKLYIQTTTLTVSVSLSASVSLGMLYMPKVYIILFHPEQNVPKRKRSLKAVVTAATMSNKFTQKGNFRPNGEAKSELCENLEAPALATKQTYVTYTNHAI
# measurementNotes: Agonist activity at mGlu4 (unknown origin) expressed in HEK293 cells coexpressing chimeric Gq/i protein assessed as increase in intracellular calcium accumulation by Fluo-4 AM dye based fluorescence assay
The reader will find reported EC50 values listed item by item below.
Numbers only here, please. The scale is µM.

Recorded EC50 (compound N[C@@H](CCP(=O)(O)[C@H](O)c1cccc([N+](=O)[O-])c1)C(=O)O ): 1

Recorded EC50 (compound N[C@@H](CCP(=O)(O)C(O)c1cc(F)c(O)c([N+](=O)[O-])c1)C(=O)O (stereo not given in full) ): 1.95

Recorded EC50 (compound Cc1ccc(C(O)P(=O)(O)CC[C@H](N)C(=O)O)cc1[N+](=O)[O-] (stereo not given in full) ): 3.3

Recorded EC50 (compound N[C@@H](CCP(=O)(O)[C@H](O)c1ccc(O)c([N+](=O)[O-])c1)C(=O)O ): 0.5

Recorded EC50 (compound N[C@@H](CCP(=O)(O)CCC(=O)O)C(=O)O ): 5.94

----------
# assayTarget: Metabotropic glutamate receptor 7 (Homo sapiens, UniProt Q14831)
# Sequence (Q14831 whole entry): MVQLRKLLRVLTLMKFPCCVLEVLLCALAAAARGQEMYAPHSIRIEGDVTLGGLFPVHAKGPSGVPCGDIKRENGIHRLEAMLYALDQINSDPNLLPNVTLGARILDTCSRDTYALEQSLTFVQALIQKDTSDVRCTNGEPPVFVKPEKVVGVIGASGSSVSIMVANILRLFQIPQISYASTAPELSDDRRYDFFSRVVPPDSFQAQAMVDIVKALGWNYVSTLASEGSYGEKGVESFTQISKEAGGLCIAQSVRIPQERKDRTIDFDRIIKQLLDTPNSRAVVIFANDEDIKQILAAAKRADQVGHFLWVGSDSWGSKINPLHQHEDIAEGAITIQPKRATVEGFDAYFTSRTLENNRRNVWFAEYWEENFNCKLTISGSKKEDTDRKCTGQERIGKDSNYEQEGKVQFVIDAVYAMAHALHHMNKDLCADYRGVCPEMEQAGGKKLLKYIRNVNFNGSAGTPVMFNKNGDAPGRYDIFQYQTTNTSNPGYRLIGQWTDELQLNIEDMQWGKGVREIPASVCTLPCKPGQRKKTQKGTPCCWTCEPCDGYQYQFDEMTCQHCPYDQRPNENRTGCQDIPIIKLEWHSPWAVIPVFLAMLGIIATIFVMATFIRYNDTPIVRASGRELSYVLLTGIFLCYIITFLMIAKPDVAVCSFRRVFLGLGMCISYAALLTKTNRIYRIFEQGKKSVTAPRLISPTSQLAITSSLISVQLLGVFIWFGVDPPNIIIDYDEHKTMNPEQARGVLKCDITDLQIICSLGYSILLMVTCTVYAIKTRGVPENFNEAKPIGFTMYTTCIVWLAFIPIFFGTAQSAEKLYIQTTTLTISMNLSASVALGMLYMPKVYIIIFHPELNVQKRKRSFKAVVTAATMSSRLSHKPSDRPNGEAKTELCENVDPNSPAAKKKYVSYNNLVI
# measurementNotes: Agonist activity at mGlu7 (unknown origin) expressed in HEK293 cells coexpressing chimeric Gq/i protein assessed as increase in intracellular calcium accumulation by Fluo-4 AM dye based fluorescence assay
# Format: functional, cell-based
pEC50: −log10 of the molar value.
endpoint: pEC50

1) N[C@@H](CCP(=O)(O)[C@H](O)c1cccc([N+](=O)[O-])c1)C(=O)O | < 4.00

Recorded pEC50 (molecule N[C@@H](CCP(=O)(O)CCC(=O)O)C(=O)O ): 4.05

Recorded pEC50 (molecule N[C@@H](CCP(=O)(O)C(O)c1ccc(C(F)(F)F)c([N+](=O)[O-])c1)C(=O)O (stereo partly drawn) ): < 4.00

Recorded pEC50 (molecule N[C@@H](CCP(=O)(O)[C@@H](O)c1cccc([N+](=O)[O-])c1)C(=O)O ): < 4.00

----------
# assayTarget: UniProtKB Q14831
# measurementNotes: Agonist activity at mGlu7 (unknown origin) expressed in HEK293 cells coexpressing chimeric Gq/i protein assessed as increase in intracellular calcium accumulation by Fluo-4 AM dye based fluorescence assay
# Assay type: functional, cell-based
The reader will find reported EC50 values listed item by item below.

1. COc1ccc([C@@H](O)P(=O)(O)CC[C@H](N)C(=O)O)cc1[N+](=O)[O-] | > 100 µM
2. N[C@@H](CCP(=O)(O)C(O)c1ccc([N+](=O)[O-])c(C(F)(F)F)c1)C(=O)O (some centres undefined) | > 100 µM
3. N[C@@H](CCP(=O)(O)[C@@H](O)c1ccc(O)c([N+](=O)[O-])c1)C(=O)O | 295 µM

Recorded EC50 (compound N[C@@H](CCP(=O)(O)[C@H](O)c1cc(F)c(O)c([N+](=O)[O-])c1)C(=O)O ): 39 µM

Recorded EC50 (compound N[C@@H](CCP(=O)(O)C(O)c1c(F)c(F)c(F)c(F)c1F)C(=O)O (some centres undefined) ): > 100 µM

Recorded EC50 (compound COc1cc([C@@H](O)P(=O)(O)CC[C@H](N)C(=O)O)cc([N+](=O)[O-])c1O ): 63 µM
